Value source: patent EP4635974A1

# System: Collagenase derived from the mouse pancreas
# ASSAY_TEXT: Inhibition of collagenase activity (synthetic substrate, absorbance at 345 nm)
# Format: biochemical
# STATED_CONDITIONS: Table 3; 100 µg/mL
READOUT_TYPE: Inhibition of collagenase activity (%)
One number for each entry, in %.

The examples below pair each entry with its known result.
KGSSCFVDC [SEQ ID NO 10] :: 15.24
KGRSSCFDC [SEQ ID NO 11] :: 11.82
RSSCFVDC [SEQ ID NO 5] :: 12.23
SSCFVDC [SEQ ID NO 6] :: 17.97
KGRSSCFVC [SEQ ID NO 12] :: 13.97

Now, please, on to the next substance.
Query :: State recorded Inhibition of collagenase activity (%) with Collagenase derived from the mouse pancreas, entry KGRSSCFVDC [SEQ ID NO 1] , no comment.
Result :: 22.91
